Please provide measured melting point for the entries that follow.

Problem: Please give the measured melting point for this molecule: O=[N+]([O-])c1cccc(-c2nnc(Nc3cccc(Cl)c3Cl)s2)c1 [Example 76]
Result: 240 to 242 °C

Problem: Field request: melting point | item: O=C(O)CCc1cccc(Oc2cccc(-c3nnc(Nc4ccc(Cl)c(Cl)c4)s3)c2)c1 [Example 9]
Result: 194 to 196 °C

Problem: What measured melting point goes with COc1cccc(-c2nnc(Nc3ccc(Br)c(Cl)c3)s2)c1 [Example 69] ?
Result: 215 to 217 °C

Problem: Request the reported melting point associated with CCOC(=O)c1ccc(Nc2nnc(-c3ccc(Oc4ccccc4)cc3)s2)cc1 [Example 123]
Result: 206 to 207 °C

Problem: Any idea what its melting point is? The molecule is O=C(O)c1ccc(CNc2nnc(-c3cccc(Oc4ccccc4)c3)s2)cc1 [Example 166]
Result: 192 to 195 °C

Problem: Look up melting point: O=[N+]([O-])c1cccc(Oc2cccc(-c3nnc(Nc4ccc(Cl)c(Cl)c4)s3)c2)c1 [Example 126]
Result: 210.5 to 211.5 °C

Problem: Query: melting point; subject: FC(F)(F)c1cccc(Oc2cccc(-c3nnc(Nc4ccc(Cl)c(Cl)c4)s3)c2)c1 [Example 154]
Result: 212 to 213 °C

Problem: Value lookup for melting point; key = O=C(O)c1ccc(N/N=C/c2cccc(Oc3cccc(-c4nnc(Nc5ccc(Cl)c(Cl)c5)s4)c3)c2)cc1 [Example 172]
Result: 259 to 262 °C

Problem: GET /values?readout=melting point&item= CCOc1cccc(-c2nnc(Nc3cccc(Br)c3)s2)c1 [Example 74]
Result: 195 to 197 °C

Problem: Data request, read-out melting point, for COc1cccc(-c2nnc(Nc3ccc(F)c(Cl)c3)s2)c1 [Example 68]
Result: 185 to 187 °C

Problem: melting point for O=C(O)C(=O)Nc1ccc(CN(c2ccc(Cl)c(Cl)c2)c2nnc(-c3cccc(Oc4cccc(C(F)(F)F)c4)c3)s2)cc1 [Example 169] ?
Result: 172 to 174 °C

Problem: Any idea what melting point was measured for O=C(O)c1cccc(Oc2cccc(-c3nnc(Nc4ccc(Cl)c(Cl)c4)s3)c2)c1 [Example 7] ?
Result: 258 to 259 °C

Problem: Given COc1ccc(CSc2cccc(Nc3nnc(-c4cccc([N+](=O)[O-])c4)s3)c2)cc1 [Example 41] , state its recorded melting point.
Result: 208 to 209 °C
